The values you see were collected from PubChem BioAssay (NCI).

Tested on: HT29 colon
method: NCI-60 one-dose screen, 48 h
particulars: 10 µM unless noted
This is part of a sample that, as a whole, favours compounds with a hit. Of some 83,000 tested, about 20% had one in any assay. Activity calls are given as the source filed them. Rule for the calls: active = growth percent below 10; inactive = the rest.
The reply should name one outcome from active, inactive

Can you look up the reported call for `Cc1cccc(CC(=O)c2ccccc2)n1` for me? inactive

Can you look up the reported call for `COc1ccc(-c2cnc(-c3ccc(F)cc3)[nH]2)cc1` for me? inactive

Can you look up the reported call for `COc1cc(/C=C2/Oc3cc4occc4c(OC)c3C2=O)ccc1OCC(=O)Nc1ccncc1` for me? inactive

Can you look up the reported call for `Nc1ccc(S(=O)(=O)Nc2ccnn2-c2ccccc2)cc1` for me? inactive

Can you look up the reported call for `Cc1nccc2c3ccc(OCc4cn(-c5ccc(Br)cc5)nn4)cc3n(CCCc3ccccc3)c12` for me? inactive

Can you look up the reported call for `CC(C)(C)OC(=O)N1CCN(CCn2cc(C(F)(F)F)c3c(Cl)ncnc32)CC1` for me? inactive

Can you look up the reported call for CCC(C)Nc1ccc(N)cc1 (stereo unspecified) for me? active

Can you look up the reported call for `COc1ccc(Cl)cc1NC(=O)c1cc2c(n1C)-c1nc(NC(=O)C(C)(C)C)sc1CC2` for me? inactive

Can you look up the reported call for `C#CCn1c(-c2cc(OC)c(OC)cc2Br)nc(-c2ccccc2)c1-c1ccccc1` for me? active

Can you look up the reported call for `COc1ccc(Cl)cc1NC(=O)c1cc2c([nH]1)-c1nc(N)sc1CCC2` for me? inactive

Can you look up the reported call for `NC(=S)NNC1CCCCC1` for me? inactive

----------
Tested on: CCRF-CEM leukemia
method: NCI-60 one-dose screen, 48 h (100 = growth as untreated, 0 = no growth, -100 = all killed)
particulars: 10 µM unless noted
This is part of a sample that, as a whole, favours compounds with a hit. Of some 83,000 tested, about 20% had one in any assay.
We use 50% as the dividing line for growth: on or above the line is Criterion met, below is Criterion not met.

Hello, I need to know if CC12CCC3C(CCC4CC(O)CCC43C)C1C/C(=C/O)C(=O)O2 (stereo not given) has measured growth not below 50%. Thanks! Criterion met

Hello, I need to know if `C#CC(=O)/C=C/CCCCCCC#CC(=O)CCC(=O)C#CCCCCCC/C=C/C(=O)C#C` has measured growth not below 50%. Thanks! Criterion not met

Hello, I need to know if C=CC(C)(O)CCC1C(=C)CCC2C(C)(C)CCCC12C (stereo not given) has measured growth not below 50%. Thanks! Criterion met

Hello, I need to know if `Cc1cccc(CC(=O)c2ccccc2)n1` has measured growth not below 50%. Thanks! Criterion met

Hello, I need to know if `CCCN1C(=O)CSC1=Nc1ccc2cc3ccc(N=C4SCC(=O)N4CCC)cc3nc2c1` has measured growth not below 50%. Thanks! Criterion not met

Hello, I need to know if `S=c1[nH]nc(Cn2c3ccccc3c3ccncc32)o1` has measured growth not below 50%. Thanks! Criterion met

Hello, I need to know if `O=C(Nc1ccc(-n2cc(-c3ccncc3)c(-c3ccc(O)c(Cl)c3)n2)cc1)c1cc(Cl)cc(Cl)c1` has measured growth not below 50%. Thanks! Criterion not met

Hello, I need to know if CC(=O)N1N=C2N(Cc3ccccc3)C(=O)c3c(sc4c3CCCC4)N2C1c1cn(-c2ccccc2)nc1-c1ccc(Cl)cc1 (stereo not given) has measured growth not below 50%. Thanks! Criterion met

Hello, I need to know if `CC(C)Cn1cnc2c3ccccc3nc(NCn3nc(-c4cc(Cl)cc(Cl)c4Cl)oc3=S)c21` has measured growth not below 50%. Thanks! Criterion not met

Hello, I need to know if `COc1ccc(-c2nnc(SCC(=O)N3CCN(c4cc5c(cc4F)c(=O)c(C(=O)O)cn5C4CC4)CC3)o2)cc1OC` has measured growth not below 50%. Thanks! Criterion met

Hello, I need to know if S=C=NP1(N=C=S)=NP(N=C=S)(N=C=S)=NP(N=C=S)(N=C=S)=NP(N=C=S)(N=C=S)=N1 (stereo not given) has measured growth not below 50%. Thanks! Criterion met

Hello, I need to know if `Cc1nc(-c2ccc(Cl)cc2)ccc1NC(=O)Nc1cccc(C(F)(F)F)c1` has measured growth not below 50%. Thanks! Criterion met

Hello, I need to know if `CCOc1ccccc1C(=O)N1CCN(c2cc(Cl)cc(Cl)c2)CC1` has measured growth not below 50%. Thanks! Criterion not met

Hello, I need to know if `Nc1ncnc2c1c(-c1ccc(Oc3ccccc3)cc1)nn2C[C@H]1SSC[C@H]1O` has measured growth not below 50%. Thanks! Criterion not met

Hello, I need to know if `O=C(C[n+]1cccc(Br)c1)c1ccc2c(c1)CCCC2` has measured growth not below 50%. Thanks! Criterion met

Hello, I need to know if `Nc1ncc(-c2ccc3ncnc(Nc4cncc(Cl)c4)c3c2)cn1` has measured growth not below 50%. Thanks! Criterion met

Hello, I need to know if `c1ccc2c(c1)Oc1cccnc1-n1nccc1-2` has measured growth not below 50%. Thanks! Criterion met

Hello, I need to know if CC(=O)c1ccc2c(c1)C1C=CCC1[C@H](c1cc3c(cc1Br)OCO3)N2 (stereo not given in full) has measured growth not below 50%. Thanks! Criterion not met

Hello, I need to know if `[2H]c1nc(Nc2ncc(F)c(-c3cc(F)c4nc(C)n(C(C)C)c4c3)n2)c([2H])c([2H])c1CN1CCN(CC)CC1` has measured growth not below 50%. Thanks! Criterion not met

----------
Please provide measured growth for the entries that follow.
Tested on: KM12 colon
method: NCI-60 one-dose screen, 48 h (100 = growth as untreated, 0 = no growth, -100 = all killed)
particulars: 10 µM unless noted
Compounds without any hit were thinned out: in the full panel of roughly 83,000, 20% have a hit.
Enter your answer as a number in %; do not include the unit.

Which growth is reported with KM12 colon for this entry: `O=c1c2ccccc2sc2c(N3CCCC3)nc3ccccc3c12` ? 85.5

Which growth is reported with KM12 colon for this entry: `CCn1cc(C(=O)O)c(=O)c2cc(F)c(N3CCN(CC(=O)Nc4ccc(C(C)=O)cc4)CC3)cc21` ? 97.4

Which growth is reported with KM12 colon for this entry: `COc1ccccc1C(OC(C)=O)OC(C)=O` ? 105

Which growth is reported with KM12 colon for this entry: `CCOc1ccc(NC2=C(Cl)C(=O)c3ccccc3C2=O)cc1` ? 72.9

Which growth is reported with KM12 colon for this entry: `Cc1cc2c(cc1C)N(C(=O)CCl)CCN2C(=O)CCl` ? -85.2

Which growth is reported with KM12 colon for this entry: `O=C1c2ccccc2C(=O)c2c(NCCN=Cc3c(O)ccc4ccccc34)cccc21` ? 89

----------
Tested on: COLO 205 colon
method: NCI-60 one-dose screen, 48 h (100 = growth as untreated, 0 = no growth, -100 = all killed)
particulars: 10 µM unless noted
This is part of a sample that, as a whole, favours compounds with a hit. Of some 83,000 tested, about 20% had one in any assay. Activity calls are given as the source filed them. Rule for the calls: active = growth percent below 10; inactive = the rest.
Please provide measured growth for the entries that follow.

# lookup: growth of `O=[N+]([O-])c1cccc(C2c3ccccc3Oc3ccccc32)c1` 90.3% (inactive)

# lookup: growth of `CCCC(=O)Oc1ccc(/C(=C(\C)c2ccc(OC)cc2)c2ccc(OCCN3CCCCC3)cc2)cc1` 67.6% (inactive)

# lookup: growth of `NS(=O)(=O)c1ccc(Nc2nc(O)c(/C=C3\C=Nc4ccccc43)s2)cc1` 122% (inactive)

# lookup: growth of `CC/C(=C(\CC)c1ccc(OCCN(CC)CC)cc1)c1ccc(OCCN(CC)CC)cc1` 4.87% (active)

# lookup: growth of `NC(=S)NNC1CCCCC1` 100% (inactive)

# lookup: growth of `CC(=O)c1cc2c(N)c(C(=O)Nc3cccc(Cl)c3)sc2nc1C` 40.7% (inactive)

# lookup: growth of CCN(CC)CCNCC(O)Cc1ccc(OC)cc1 (stereo not given) 111% (inactive)

# lookup: growth of O=S(c1ccccc1)c1ccc2nnnn2n1 (stereo not given) 98% (inactive)

# lookup: growth of `O=C(/C=C/c1ccccc1)Oc1ccc(/C=C/c2cc(OC(=O)/C=C/c3ccccc3)cc(OC(=O)/C=C/c3ccccc3)c2)cc1` 97.4% (inactive)

# lookup: growth of COc1ccc(C2CC(c3cc(Cl)c(C)cc3OC)=NN2c2ccc(S(N)(=O)=O)cc2)cc1OC (stereo not given) 101% (inactive)

----------
Tested on: UACC-257 melanoma
method: NCI-60 one-dose screen, 48 h
particulars: 10 µM unless noted
The panel holds about 83,000 compounds, 20% with a hit somewhere; the sample as a whole holds those more often. Activity calls are given as the source filed them. How the source made its calls: active means growth percent below 10; inactive means the rest.
The reply should name one outcome from active, inactive

Can you look up the reported call for `COc1ccc(Cl)cc1NC(=O)c1cc2c(n1C)-c1nc(NC(=O)C(C)(C)C)sc1CC2` for me? inactive

Can you look up the reported call for CC(Cl)(CCl)CS(=O)(=O)c1ccc(Cl)cc1 (stereo not given) for me? inactive

Can you look up the reported call for `CC[C@@]1(O)C(=O)OCc2c1cc1n(c2=O)Cc2c-1nc1ccccc1c2/C=N/OC(C)(C)C` for me? active

Can you look up the reported call for COc1ccc(OCC(O)CN2CCN(c3ccc(Cl)cc3)CC2)cc1 (stereo not given) for me? inactive

Can you look up the reported call for `Clc1ccc2c(NCCNc3nc(Cl)nc4ccccc34)ccnc2c1` for me? inactive

Can you look up the reported call for `COC(=O)/C=C/C(=O)c1cc(C)cc(C)c1O` for me? inactive

Can you look up the reported call for `CCCC(=O)Oc1ccc(/C(=C(\C)c2ccc(OC)cc2)c2ccc(OCCN3CCCCC3)cc2)cc1` for me? inactive

Can you look up the reported call for CC(CCC(=O)O)[C@H]1CCC2C3C(=O)C[C@@H]4CC(=O)CC[C@]4(C)C3CC(=O)[C@@]21C (stereo not given in full) for me? inactive

Can you look up the reported call for `c1ccc([Se]CCCN2CCN(CCC[Se]c3ccccc3)CC2)cc1` for me? inactive

Can you look up the reported call for COc1ccc(C2=NN(C(=O)COc3ccc(Cl)cc3)C(O)(c3cc(F)c(Cl)cc3Cl)C2)cc1OC (stereo not given) for me? inactive
